- SYSTEM UNDER TEST: human CYP11B2 (Homo sapiens, UniProt P19099)
- Sequence (P19099 25-503): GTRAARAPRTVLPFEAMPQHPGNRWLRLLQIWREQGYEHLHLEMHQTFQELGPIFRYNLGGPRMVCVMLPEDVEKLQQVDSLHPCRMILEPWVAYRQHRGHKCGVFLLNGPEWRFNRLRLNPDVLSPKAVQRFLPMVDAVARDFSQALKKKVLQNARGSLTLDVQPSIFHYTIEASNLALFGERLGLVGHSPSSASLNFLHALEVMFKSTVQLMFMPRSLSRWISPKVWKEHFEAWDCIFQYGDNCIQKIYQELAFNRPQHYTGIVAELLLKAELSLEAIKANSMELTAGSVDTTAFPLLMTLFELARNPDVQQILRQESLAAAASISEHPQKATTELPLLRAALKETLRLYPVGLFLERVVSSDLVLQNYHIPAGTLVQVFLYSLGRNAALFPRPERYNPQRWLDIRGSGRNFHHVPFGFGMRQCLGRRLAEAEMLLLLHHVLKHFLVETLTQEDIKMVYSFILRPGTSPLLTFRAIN
- ASSAY COMMENT: G-402 cellular enzyme assay, human CYP11B2 (aldosterone release, HTRF)
- CONDITION NOTES: G-402 cells expressing human CYP11B2; 1 μM Deoxycorticosterone
pEC50: −log10 of the molar value.
MEASUREMENT NAME: pEC50

Here's what some known entries look like.
# MOLECULE, EXPERIMENTAL VALUE
measured = [
    ("Cc1c(-c2ccc3c(c2)CCC(=O)N3C)cncc1C(C)NC(=O)c1ncccc1Cl (single isomer, unassigned)", 8.15),
    ("Cc1nocc1C(=O)NCc1cncc(-c2ccc3c(c2)CCC(=O)N3C)c1", 7.80),
    ("Cc1c(CNC(=O)c2ncccc2Cl)cncc1-c1cc2c(cc1F)N(C)C(=O)CC2", 8.40),
    ("CCC(=O)NC(C)c1cncc(-c2cc3c(cc2F)N(C)C(=O)CC3)c1C (single isomer, unassigned)", 7.62),
]

1 = CN1C(=O)CCc2cc(-c3cncc(O[C@H]4CCN(C(=O)C5CC5)C4)c3)ccc21
2 = CCC(=O)N[C@H]1CC[C@H](Oc2cncc(-c3ccc4c(c3)CCC(=O)N4C)c2)CC1
IN: Hey, which is lower on measured pEC50, 1 or 2 ? API: response body contains the label of the selected item.
OUT: 1

I = CN1C(=O)CCc2cc(-c3cncc(CNS(=O)(=O)C(F)(F)F)c3)ccc21
II = CN1C(=O)CCc2cc(-c3cncc(C(C)(C)NC(=O)c4ncccc4Cl)c3)ccc21
IN: Of the two listed items, which has the higher pEC50? First: I Second: II API: response body contains the label of the selected item.
OUT: II
(II: 8.52, I: 7.21)
